System: REH;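 note: ALL cell lines in 384-well plates, five doses spanning 10,000-fold, each plate scaled between vehicle and 100 µmol/L benzalkonium chloride controls, sDSS an adapted area-under-curve metric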
Assay: selective drug sensitivity score (sDSS, relative to normal bone marrow) (sDSS (score)); higher = more potent and effective on the cell line relative to normal bone marrow cells
Details: 72 h
// reported selective drug sensitivity score for each item listed

# annotated cases, reported selective drug sensitivity score shown
C[C@@H](Nc1cc(F)cc(F)c1)c1cc(C(=O)N(C)C)cc2c(=O)cc(N3CCOCC3)oc12 [AZD-8186] (top concentration 1000 nM)	9.54
COc1cc(C(=O)O)ccc1NC(=O)[C@@H]1N[C@@H](CC(C)(C)C)[C@](C#N)(c2ccc(Cl)cc2F)[C@H]1c1cccc(Cl)c1F [Idasanutlin] (top concentration 10000 nM)	8.16
COc1cc(N2CCN(C)CC2)ccc1Nc1nccc(-c2cn(C)c3cnccc23)n1 [AZ191] (top concentration 10000 nM)	0.48
O=C1CCc2c(Oc3ccc4c(c3)[C@@H]3[C@H](O4)[C@H]3c3nc4cc(C(F)(F)F)ccc4[nH]3)ccnc2N1 [Lifirafenib (BGB-283)] (top concentration 10000 nM)	3.48
CCNc1nc(Nc2cc(F)c(C(=O)N3CCOCC3)cc2OC)ncc1C(F)(F)F [GNE-7915] (top concentration 1000 nM)	-0.06
Cc1ccc(NS(=O)(=O)c2cccc(C#N)c2)c2[nH]cc(C#N)c12 [E7820] (top concentration 50000 nM)	13.7

Asked: State its selective drug sensitivity score for this molecule: O=C(O)c1ccc2c(c1)nc(Nc1cccc(Cl)c1)c1ccncc12 [Silmitasertib] (top concentration 10000 nM)
Given back: 4.8

Asked: State its selective drug sensitivity score for this molecule: COc1cc2c(cc1-c1c(C)noc1C)ncc1[nH]c(=O)n([C@H](C)c3ccccn3)c12 [I-BET151] (top concentration 10000 nM)
Given back: -2.24

Asked: State its selective drug sensitivity score for this molecule: Nc1ccccc1NC(=O)c1ccc(CNC(=O)OCc2cccnc2)cc1 [Entinostat] (top concentration 10000 nM)
Given back: 2.68

Asked: State its selective drug sensitivity score for this molecule: CNc1ncc2cc(-c3cc(NC(=O)NCCC(C)(C)C)c(F)cc3C)c(C)nc2n1 (top concentration 10000 nM)
Given back: -2.24

Asked: State its selective drug sensitivity score for this molecule: COc1cc([C@@H]2c3cc4c(cc3[C@@H](O[C@@H]3O[C@@H]5CO[C@@H](C)O[C@H]5[C@H](O)[C@H]3O)[C@H]3COC(=O)[C@H]23)OCO4)cc(OC)c1O [Etoposide] (top concentration 10000 nM)
Given back: 20.3

Asked: State its selective drug sensitivity score for this molecule: COc1cc2ncnc(Nc3ccc(F)c(Cl)c3)c2cc1OCCCN1CCOCC1 [Gefitinib] (top concentration 10000 nM)
Given back: 2.36
